Values were extracted from patent US20240122905A1.

experiment: PK1: absolute/subcutaneous bioavailability study of Tacrolimus solution (IV and SC); format: in vivo, female Göttingen minipig; conditions: female, Göttingen, minipig; Tacrolimus solution 2.5 mg/animal SC; whole blood
measured-parameter: AUC(0-t) (ng·h/mL)

{"columns": ["compound", "recorded-number"],
 "data": [
  ["C=CC[C@@H]1/C=C(\\C)C[C@H](C)C[C@H](OC)[C@H]2O[C@@](O)(C(=O)C(=O)N3CCCC[C@H]3C(=O)OC(/C(C)=C/[C@@H]3CC[C@@H](O)[C@H](OC)C3)[C@H](C)[C@@H](O)CC1=O)[C@H](C)C[C@@H]2OC (stereo partly shown)", 1760]
]}
